FYI, the data here is from PubChem BioAssay (NCI).

Listed here are compounds together with their documented TGI.
# Tested on: T-47D breast
# measurement_notes: NCI tumour cell line growth inhibition, 48 h
The response must be a number in µM with no trailing unit.

Completed entries (count: 2):
O=C1CC(c2ccccc2Cl)C2(C(=O)NC(=O)NC2=O)C(c2ccccc2Cl)C1 (stereo unspecified) | 78.2
CCN1CCN(Cc2ccc(NC(=O)Nc3ccc(-n4ccc5c(NC(=O)c6ccccc6)nccc54)cc3)cc2C(F)(F)F)CC1 | 15.9

Q: Using the record for C=C1CC(COc2ccc3c(C)c(C)c(=O)oc3c2C)(c2ccccc2)OC1=O (stereo unspecified) , report its TGI.
Ans: 4.96

Q: Recorded TGI for O=P(OCc1ccccc1)(OCc1ccccc1)C(O)/C=C/c1ccccc1 (stereo unspecified) , please?
Ans: 88.3

Q: Please report the recorded TGI for COc1cccc(N2C(=O)CS(=O)(=O)C2c2cccc(Oc3ccccc3)c2)c1 (stereo unspecified) .
Ans: 81.1

###

Quick reference for TGI among some molecules
# Test system: NCI-H460 lung
# measurement_notes: NCI tumour cell line growth inhibition, 48 h
Peptide text beside a SMILES is read from it. * marks the point of attachment. X26 = Clc1c(Cl)c(Cl)c(O*)c(Cl)c1Cl; Boc = CC(C)(C)OC(=O)*; OBn = c1ccc(CO*)cc1; Bn = c1ccc(C*)cc1

Sample records with TGI:
CC(C)CC(NC(=O)C(CCC(=O)OCc1ccccc1)NC(=O)OC(C)(C)C)C(=O)NC(COCc1ccccc1)C(=O)NC(Cc1ccccc1)C(=O)Oc1c(Cl)c(Cl)c(Cl)c(Cl)c1Cl (stereo not given) (Boc-E(OBn)LS(Bn)F-X26; configuration not given here) | 59.8 µM
O=C1/C(=C/c2ccc(Cl)cc2)CCCc2ccc(F)cc21 | 54 µM
C=C(C)[C@H]1CC(=O)/C(C)=C\CC/C(C)=C/CC[C@@]2(C)O[C@@H]2C1 | 33.1 µM

Q: Name the recorded TGI for CCOC(=O)/C=C(/C=C\COC1CCCCO1)c1ccccc1 (stereo not given) .
Ans: > 100 µM

Q: Tell me the measured TGI of `N#CC(C#N)SCc1ccccc1` , please.
Ans: > 41.6 µM

Q: Request the reported TGI associated with `Cn1cc(C2=C(c3cn(C)c4ccc(N)cc34)C(=O)NC2=O)c2ccccc21`
Ans: > 25 µM

Q: Entry under review: NC(Cc1[nH]nc2ccccc12)C(=O)O (stereo not given) . Reported TGI?
Ans: > 100 µM

Q: Recorded TGI of COc1ccc(C2C(Cl)C(=O)N2n2cnc3ccccc3c2=O)cc1OC (stereo not given) , please.
Ans: > 100 µM

###

# Tested on: SNB-19 CNS
# measurement_notes: NCI tumour cell line growth inhibition, 48 h; in the data active = GI50 below about 0.43 µM; inactive = the rest
Could you please pick one outcome from this set? t for active, f for inactive

Reference set (5 entries):
CCOC(=O)c1c(NC(=O)c2ccc(C(C)C)cc2)sc2c(CN(C)C)c(O)ccc12 | f
C=C1C[C@@H]2CC[C@@]34C[C@H]5O[C@H]6[C@@H](O3)[C@H]3O[C@H](CC[C@@H]3O[C@H]6[C@H]5O4)CC(=O)C[C@@H]3[C@@H](OC)[C@@H](C[C@H](O)CN)O[C@H]3C[C@H]3O[C@@H](CC[C@@H]1O2)C[C@@H](C)C3=C | t
CS(=O)(=O)c1ccc(Cl)c([N+](=O)[O-])c1 | f
COc1ccc(C(=O)N2c3ccccc3Sc3ccccc32)c(F)c1 | f
CCN(CCCCCCCCCCN1CC(=O)N(CCCCCCCCCCN(CC)Cc2ccccc2OC)CC1=O)Cc1ccccc1OC | f

Q: What did this assay record as the result for `CSc1ccc(C2=Nn3c(nnc3-c3ccc(F)c(Cl)c3)SC2)cc1` ?
Ans: f

Q: Test call, this compound: `C[n+]1cc2c3c(ccc2c2ccc4cc5c(cc4c21)OCO5)OCO3`
Ans: f

Q: What did the test return for Clc1ccc(COC(Cn2ccnc2)c2ccc(Cl)cc2Cl)cc1 (centres undefined) ?
Ans: f

Q: Just curious, what result did `Cc1cc(N(CCNc2ccnc3cc(Cl)ccc23)Cc2ccc3c(c2)OCO3)nc(N2CCN(C)CC2)n1` get here?
Ans: f

###

In this section we review reported GI50 values for a set of compounds.
# Test system: K-562 leukemia
# measurement_notes: NCI tumour cell line growth inhibition, 48 h

Observe how each entry below is paired with its result.
Cn1cc(C2=C(c3cn(C)c4ccc(N)cc34)C(=O)NC2=O)c2ccccc21 | 1.92 µM
CSc1ccc(/C=C2\CNC/C(=C\c3ccc(SC)cc3)C2=O)cc1 | 150 µg/mL

Q: What value of measured GI50 is listed for `C[C@]12CC[C@@H]3c4ccc(O)c([N+](=O)[O-])c4CC[C@H]3[C@@H]1CC[C@@H]2NS(=O)(=O)c1ccc(C(F)(F)F)cc1` ?
Ans: 2.02 µM

Q: Which GI50 is listed for `CC[C@H](C)[C@H](NC(=O)c1cnccn1)C(=O)N(C)[C@H](C[C@@H](OC(C)=O)c1nc(C(=O)N[C@@H](Cc2ccccc2)C[C@H](C)C(=O)OC)cs1)C(C)C` ?
Ans: 0.662 µM

Q: Can you share its GI50? I mean this compound: CCN(c1ccc(CO)c(Cl)c1)C(C)c1ccc(F)cc1 (stereo not given)
Ans: 9.86 µM

###

# Test system: IGROV1 ovarian
# measurement_notes: NCI tumour cell line growth inhibition, 48 h
Peptide text beside a SMILES is read from it. * marks the point of attachment. X26 = Clc1c(Cl)c(Cl)c(O*)c(Cl)c1Cl; Boc = CC(C)(C)OC(=O)*; OBn = c1ccc(CO*)cc1; Bn = c1ccc(C*)cc1
Listing: TGI of selected molecules
# unit: µM | format: bare number

C=C1C(=O)O[C@@H]2C[C@@]3(C)CC(=O)C=C(C)[C@@H]3C[C@H]12 | 32.2
CC(C)CC(NC(=O)C(CCC(=O)OCc1ccccc1)NC(=O)OC(C)(C)C)C(=O)NC(COCc1ccccc1)C(=O)NC(Cc1ccccc1)C(=O)Oc1c(Cl)c(Cl)c(Cl)c(Cl)c1Cl (stereo not drawn) (Boc-E(OBn)LS(Bn)F-X26; configuration not given here) | 56.3
CSc1ccc(C2=Nn3c(nnc3-c3ccc(F)c(Cl)c3)SC2)cc1 | 44.4
CC(C)c1cccc(C(C)C)c1NC(=O)C(=O)C(C(=O)c1ccccc1-c1ccccc1)C1OC(=O)c2ccccc21 (stereo not drawn) | 74.7

Now let's try a different one.
Q: Entry `Clc1ccccc1NN(Cc1ccccn1)c1ccccc1Cl` : reported TGI = ?
Ans: 42.2

###

# System: HCC-2998 colon
# measurement_notes: NCI tumour cell line growth inhibition, 48 h; in the data active = GI50 below about 0.43 µM; inactive = the rest
Return exactly one item of true (1) = active, false (0) = inactive

COC(=O)C1=C(OC(=O)c2ccc(Cl)cc2)C(C(=O)OC)[C@@]2(O)[C@@H](C(=O)OC)C(c3ccccc3C(F)(F)F)C[C@@H]1[C@@H]2C(=O)OC (some centres undefined) | false (0)
CC1(C)N=C(N)N=C(N)N1c1ccc(CCc2ccccc2)c(Cl)c1 | true (1)
Fc1cccc(COc2ccc(Nc3ncnc4sc(-c5ccco5)cc34)cc2Cl)c1 | false (0)

Q: State the result this test recorded for `CCOC(=O)c1c(NC(=O)c2ccc(C(C)C)cc2)sc2c(CN(C)C)c(O)ccc12` .
Ans: false (0)

###

# Test system: OVCAR-3 ovarian
# measurement_notes: NCI tumour cell line growth inhibition, 48 h
test_readout: TGI

CC(CO)[C@H]1OC(=O)C=C2[C@@]13O[C@@H]3[C@H]1OC(=O)[C@@]3(C)[C@H]4O[C@H]4C[C@@]2(C)[C@@H]13 (stereo partly drawn) | > 30.1 µM
CC(C)N(C(=O)C12C3C4C1C1C2C3C41C(O)C(C)(C)C)C(C)C (stereo not drawn) | > 50 µM
O=C1CS/C(=N/N=C/c2cn(Cc3ccc(Cl)cc3Cl)c3ccccc23)N1 | > 100 µM
O=[N+]([O-])c1ccc(N=Nc2c(O)[nH]c3ccc([N+](=O)[O-])cc23)cc1 | 42 µM
COc1cc(OC)cc(Oc2nc3cc(F)c(F)cc3nc2-c2ccccc2)c1 | > 100 µM

Q: Any idea what TGI was measured for `CC1(C)CCC(C)(C)c2cc(C(=O)Nc3ccc(C(=O)O)cc3)ccc21` ?
Ans: 40.4 µM

Q: Which value of TGI has been reported for COc1ccc(C2C(Cl)C(=O)N2n2cnc3ccccc3c2=O)cc1OC (stereo not drawn) in the records?
Ans: > 100 µM

Q: Quick check: TGI of `N=C(N)SCc1cn2ccccc2n1` ?
Ans: > 100 µM

Q: Requested read-out: TGI. Entry: `C[n+]1c(-c2ccc(NC(=O)c3ccc(C(=O)Nc4ccc(-c5cn6ccccc6[n+]5C)cc4)cc3)cc2)cn2ccccc21`
Ans: > 100 µM

Q: Could you tell me which TGI is on file for NCCCCNCCCNC(=O)CNC(=O)CC(O)C(N)CCCC(NC(=O)C(CN)NC(=O)C(O)CNC(=O)CC(N)c1ccc(O)cc1)C(=O)O (stereo not drawn) ?
Ans: > 10 µM

Q: What value of TGI has been recorded for this entry: O=C(O)C1=NN(c2ccc(S(=O)(=O)O)cc2)C2(C1)C(Cl)C(=O)N2c1nc2ccccc2s1 (stereo not drawn)
Ans: 33.8 µM

Q: Entry `COc1cc(-c2csc(NC(=O)c3cc(C(F)(F)F)cc(C(F)(F)F)c3)n2)cc(OC)c1OC` : reported TGI = ?
Ans: 19 µM

Q: What measured TGI goes with `O=C1N/N=C\c2ccc(cc2)OCc2cccc(n2)COc2ccc(cc2)/C=N\NC1=O` ?
Ans: > 25 µM

Q: Given `CC(=O)OCC(=O)O[C@@H]1[C@H]2[C@@H](OC(=O)c3ccccc3)[C@@H](C)C[C@]2(O)[C@H](OC(C)=O)[C@@]2(C)C[C@]1(OC(C)=O)C[C@H]1C(=O)C(C)(C)[C@@H](OC(C)=O)[C@@H]12` , state its recorded TGI.
Ans: > 25 µM

Q: Reported TGI for `O=c1oc2ccccc2c(O)c1C=NC(=S)c1ccncc1` : what is it?
Ans: > 100 µM

Q: Sample `COc1cc2[nH]c(=O)c3cc(-c4ccccc4)cc4c(Cl)nc(c1OC)c2c43` — what was its TGI?
Ans: > 100 µM

Q: # get_value(readout='TGI', item= CCCCCCCCCCCCOCCOCCOCCOCCOCCOCC(=O)NC(Cc1ccccc1)C(=O)Oc1ccc([N+](=O)[O-])cc1 (stereo not drawn) )
Ans: 51.9 µM

Q: Which value of TGI has been reported for CCOC(=O)/C=C(/C=C\COC1CCCCO1)c1ccccc1 (stereo not drawn) in the records?
Ans: 80.8 µM
